Target: T1, MBP-fused PDZ domain of SYNJ2BP (human, UniProt P57105 13-100)
T1 sequence (looked up): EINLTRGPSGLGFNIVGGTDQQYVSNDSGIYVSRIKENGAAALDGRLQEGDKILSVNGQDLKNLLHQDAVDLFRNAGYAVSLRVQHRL
Assay: SPR
Where no end group is shown, it is not given here.
assayReadout: pKd
Note on pKd: it is the negative log10 of concentration, concentration in mol/L.

Ask: Would you mind telling me what pKd value was observed for RSSRTRRETQL (not fully specified (N-terminus); also: biotinylated, position not given here) [biotinylated HPV16 E6 peptide] ?
Result: 4.48
